# assay system: Bcr/Abl fusion protein (Homo sapiens)
# assay: Inhibition of Bcr-Abl kinase (unknown origin) after 30 mins by HTRF assay
measure: IC50 (nM)
// note: answer is a bare numeric in nM

Some compounds with known IC50 results, for comparison:
>  <substance smiles>
COc1ccc(C(=O)Nc2ccc(OCCN3CCCCC3)cc2)cc1Nc1nccc(-c2cccnc2)n1

>  <assay system>
Bcr/Abl fusion protein (Homo sapiens)

>  <value unit>
nM

>  <IC50>
1110

$$$$
>  <substance smiles>
CCN(CC)CCOc1ccc(NC(=O)c2ccc(OC)c(Nc3nccc(-c4cccnc4)n3)c2)cc1

>  <assay system>
Bcr/Abl fusion protein (Homo sapiens)

>  <value unit>
nM

>  <IC50>
1.48

$$$$

Quick one: IC50 of "COc1ccc(C(=O)Nc2ccncc2)cc1Nc1nccc(-c2cccnc2)n1" ?
2750

Please give the result for "COc1ccc(C(=O)Nc2ccc(OCCCN(C)C)cc2)cc1Nc1nccc(-c2cccnc2)n1" too.
0.52

Please give the result for "COc1ccc(C(=O)Nc2ccc(Br)cc2)cc1Nc1nccc(-c2cccnc2)n1" too.
4.79

----------
# System: K562
# assay: Antiproliferative activity against human K562 cells after 48 hrs by MTT assay
# Format: functional, cell-based
# study conditions: K562, 48 h
Item-by-item account of pIC50
Scale: negative log10 of molar concentration, which is what pIC50 denotes.

Some molecules with known pIC50 results, for comparison:
>  <substance smiles>
COc1ccc(C(=O)Nc2ccc(OCCN3CCCC3)cc2)cc1Nc1nccc(-c2cccnc2)n1

>  <pIC50>
4.41

$$$$
>  <substance smiles>
COc1ccc(C(=O)Nc2ccncc2)cc1Nc1nccc(-c2cccnc2)n1

>  <pIC50>
4.02

$$$$

Quick one: pIC50 of "COc1ccc(C(=O)Nc2cc(Br)cc(C(F)(F)F)c2)cc1Nc1nccc(-c2cccnc2)n1" ?
3.67

Please give the result for "COc1ccc(C(=O)Nc2ccc(OCCN3CCCCC3)cc2)cc1Nc1nccc(-c2cccnc2)n1" too.
5.29

Please give the result for "COc1ccc(C(=O)Nc2cccc(C(C)=O)c2)cc1Nc1nccc(-c2cccnc2)n1" too.
3.62

Please give the result for "COc1ccc(C(=O)Nc2cccc(Cl)c2)cc1Nc1nccc(-c2cccnc2)n1" too.
3.62

----------
# assay system: Bcr/Abl fusion protein (Homo sapiens, UniProt P00519)
# Sequence (P00519 whole entry, the tested form may be a part): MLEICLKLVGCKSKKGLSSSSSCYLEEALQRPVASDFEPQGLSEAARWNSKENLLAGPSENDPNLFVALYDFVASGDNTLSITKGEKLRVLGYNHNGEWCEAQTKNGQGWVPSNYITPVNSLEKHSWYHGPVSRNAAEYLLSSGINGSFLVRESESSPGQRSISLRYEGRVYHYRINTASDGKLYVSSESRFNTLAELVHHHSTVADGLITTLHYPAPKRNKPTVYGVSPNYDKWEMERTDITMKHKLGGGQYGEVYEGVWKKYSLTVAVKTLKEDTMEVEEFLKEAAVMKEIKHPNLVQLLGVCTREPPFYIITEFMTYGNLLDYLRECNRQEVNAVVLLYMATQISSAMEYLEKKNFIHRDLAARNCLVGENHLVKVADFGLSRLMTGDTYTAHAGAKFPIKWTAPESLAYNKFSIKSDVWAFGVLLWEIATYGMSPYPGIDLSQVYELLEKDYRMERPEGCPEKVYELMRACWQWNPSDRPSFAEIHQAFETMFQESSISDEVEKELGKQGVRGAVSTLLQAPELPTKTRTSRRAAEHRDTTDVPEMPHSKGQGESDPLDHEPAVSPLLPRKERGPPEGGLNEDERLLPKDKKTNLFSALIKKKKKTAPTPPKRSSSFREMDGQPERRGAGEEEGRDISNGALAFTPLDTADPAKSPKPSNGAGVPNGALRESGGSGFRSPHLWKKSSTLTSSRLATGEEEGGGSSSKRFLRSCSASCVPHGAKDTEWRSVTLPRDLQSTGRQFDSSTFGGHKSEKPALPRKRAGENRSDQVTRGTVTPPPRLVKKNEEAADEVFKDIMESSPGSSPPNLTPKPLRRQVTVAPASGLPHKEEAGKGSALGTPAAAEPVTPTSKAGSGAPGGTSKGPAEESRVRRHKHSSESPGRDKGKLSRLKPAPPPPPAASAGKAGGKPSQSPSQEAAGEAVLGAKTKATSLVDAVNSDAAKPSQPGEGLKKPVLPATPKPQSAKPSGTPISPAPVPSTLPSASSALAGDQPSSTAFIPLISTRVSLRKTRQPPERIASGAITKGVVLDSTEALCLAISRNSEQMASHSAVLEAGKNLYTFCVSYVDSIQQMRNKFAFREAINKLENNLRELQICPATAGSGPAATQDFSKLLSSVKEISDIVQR
# Sequence (P11274 whole entry, further chain, the tested form may be a part): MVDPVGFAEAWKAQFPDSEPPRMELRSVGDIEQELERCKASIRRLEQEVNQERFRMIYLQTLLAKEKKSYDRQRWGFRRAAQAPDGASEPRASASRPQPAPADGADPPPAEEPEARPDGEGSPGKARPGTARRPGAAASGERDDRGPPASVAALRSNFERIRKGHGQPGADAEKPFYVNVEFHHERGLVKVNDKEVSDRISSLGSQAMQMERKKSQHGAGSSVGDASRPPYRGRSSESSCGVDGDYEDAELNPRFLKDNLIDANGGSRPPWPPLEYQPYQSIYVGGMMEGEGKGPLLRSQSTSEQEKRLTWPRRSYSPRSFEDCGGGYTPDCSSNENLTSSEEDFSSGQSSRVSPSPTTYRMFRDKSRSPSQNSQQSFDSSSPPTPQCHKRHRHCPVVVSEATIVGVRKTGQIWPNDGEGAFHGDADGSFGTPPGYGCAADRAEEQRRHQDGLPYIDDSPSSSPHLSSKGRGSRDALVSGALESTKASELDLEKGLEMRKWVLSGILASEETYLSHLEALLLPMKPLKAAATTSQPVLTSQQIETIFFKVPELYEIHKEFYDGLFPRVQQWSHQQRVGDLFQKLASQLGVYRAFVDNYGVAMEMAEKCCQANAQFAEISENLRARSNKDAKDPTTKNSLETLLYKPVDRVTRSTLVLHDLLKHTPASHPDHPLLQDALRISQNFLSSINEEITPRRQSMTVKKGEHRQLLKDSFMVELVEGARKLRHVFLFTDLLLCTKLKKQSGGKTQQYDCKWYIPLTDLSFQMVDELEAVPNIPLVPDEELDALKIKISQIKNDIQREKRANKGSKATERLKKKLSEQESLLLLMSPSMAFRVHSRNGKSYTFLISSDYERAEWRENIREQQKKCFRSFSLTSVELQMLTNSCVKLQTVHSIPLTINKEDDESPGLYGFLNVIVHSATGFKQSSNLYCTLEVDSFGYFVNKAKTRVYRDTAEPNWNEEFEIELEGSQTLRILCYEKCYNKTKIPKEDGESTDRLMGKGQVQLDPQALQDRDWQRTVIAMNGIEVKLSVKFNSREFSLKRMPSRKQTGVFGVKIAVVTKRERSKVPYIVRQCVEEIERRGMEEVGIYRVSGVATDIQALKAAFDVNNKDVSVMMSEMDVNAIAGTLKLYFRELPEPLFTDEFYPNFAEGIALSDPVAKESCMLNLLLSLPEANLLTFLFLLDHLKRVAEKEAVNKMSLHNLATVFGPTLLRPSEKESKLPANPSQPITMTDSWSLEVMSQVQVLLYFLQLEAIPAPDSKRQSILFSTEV
# assay: Inhibition of Bcr-Abl kinase (unknown origin) after 30 mins by HTRF assay
Item-by-item account of pIC50
Scale: negative log10 of molar concentration, which is what pIC50 denotes.

>  <substance smiles>
COc1ccc(C(=O)Nc2nccs2)cc1Nc1nccc(-c2cccnc2)n1

>  <pIC50>
6.53

$$$$

Quick one: pIC50 of "COc1ccc(C(=O)Nc2cccc(Cl)c2)cc1Nc1nccc(-c2cccnc2)n1" ?
7.46

Please give the result for "COc1ccc(C(=O)Nc2ccc(OCCN(C)C)cc2)cc1Nc1nccc(-c2cccnc2)n1" too.
8.63

Please give the result for "COc1ccc(C(=O)Nc2ncccn2)cc1Nc1nccc(-c2cccnc2)n1" too.
8.42

Please give the result for "COc1ccc(C(=O)Nc2cccc(F)c2)cc1Nc1nccc(-c2cccnc2)n1" too.
8.49

----------
# System: K562
# assay: Antiproliferative activity against human K562 cells after 48 hrs by MTT assay
# Format: functional, cell-based
# study conditions: K562, 48 h
measure: IC50 (µM)
// note: answer is a bare numeric in µM

Some compounds with known IC50 results, for comparison:
>  <substance smiles>
Cc1cn(-c2cc(NC(=O)c3ccc(C)c(Nc4nccc(-c5cccnc5)n4)c3)cc(C(F)(F)F)c2)cn1

>  <value unit>
µM

>  <measurement>
89.1

$$$$
>  <substance smiles>
COc1ccc(C(=O)Nc2ccc(OCCCN(C)C)cc2)cc1Nc1nccc(-c2cccnc2)n1

>  <value unit>
µM

>  <measurement>
38.5

$$$$
>  <substance smiles>
COc1ccc(C(=O)Nc2cc(C(F)(F)F)cc(C(F)(F)F)c2)cc1Nc1nccc(-c2cccnc2)n1

>  <value unit>
µM

>  <measurement>
4.84

$$$$

Proceeding to the next compound to report its IC50.
Param readout = IC50; param system = K562; param query = "COc1cccc(NC(=O)c2ccc(OC)c(Nc3nccc(-c4cccnc4)n3)c2)c1" ; response: value
93.1
